Origin of values: PubChem BioAssay AID1159580

experiment: chemical genetic growth profiling, strain panel (AID 1159580);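 note: tested at 20 µM; growth read once vehicle control cultures reached saturation at 30 °C; 1 = growth at the plate median or of vehicle wells; lower values mean less growth of the strain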; conditions: S. cerevisiae deletion strains, growth OD, locus YNL322C, strain KRE1, hits give low values
The campaign covered roughly 5,500 compounds. About 2,000 (36%) were called active. Not shown: some 18% with an inconclusive outcome. This is one part of the list.
ASSAY ENDPOINT: normalized growth

MOLECULE: NCC[C@@H](O)C(=O)N[C@@H]1C[C@H](N)[C@@H](O[C@H]2O[C@H](CN)[C@@H](O)[C@H](O)[C@H]2O)[C@H](O)[C@H]1O[C@H]1O[C@H](CO)[C@@H](O)[C@H](N)C1O (stereo not given in full)
EXPERIMENTAL VALUE: 1.01

MOLECULE: CCCNC(=O)NS(=O)(=O)c1ccc(Cl)cc1
EXPERIMENTAL VALUE: 0.988

MOLECULE: CCOC(=O)C(O)(c1ccc(N)c(C)c1)C(F)(F)F (stereo not given)
EXPERIMENTAL VALUE: 1

MOLECULE: NC1(C(=O)O)CC1
EXPERIMENTAL VALUE: 1.01

MOLECULE: CC(C)(CC(=O)O)CC(=O)Nc1cc(C(F)(F)F)cc(C(F)(F)F)c1
EXPERIMENTAL VALUE: 0.973

MOLECULE: CCOC(=O)c1sc2sc(C(=O)c3ccc(Cl)cc3)c(C)c2c1C
EXPERIMENTAL VALUE: 1.01

MOLECULE: CCc1cccc(C)c1NC(=O)CC(C)(C)CC(=O)O
EXPERIMENTAL VALUE: 0.992

MOLECULE: COc1ccc2c(=O)c(OC)c(-c3ccccc3)oc2c1
EXPERIMENTAL VALUE: 0.95

MOLECULE: O=S(=O)(NCc1ccc(F)cc1F)c1cccc(C(F)(F)F)c1
EXPERIMENTAL VALUE: 0.973

MOLECULE: COc1ccc2oc(-c3ccccc3)c(OC)c(=O)c2c1
EXPERIMENTAL VALUE: 0.947

* * *

assay: chemical genetic growth profiling, strain panel (AID 1159580);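 note: tested at 20 µM; growth read once vehicle control cultures reached saturation at 30 °C; 1 = growth at the plate median or of vehicle wells; lower values mean less growth of the strain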; settings: S. cerevisiae deletion strains, growth OD, locus YLR262C, strain YPT6, hits give low values
Screen size: about 5,500 compounds; about 2,000 (36%) were called active. Roughly 18% stayed inconclusive and do not appear here. Some of the results follow.
Consider the reported normalized growth of an entry and match it to a band in low: < 0.8; mid: ≥ 0.8 and < 1; high: ≥ 1

COMPOUND: Nc1ccc(Oc2ccc(Cl)cc2C2CCCCC2)nc1
LABEL CLASS: low

COMPOUND: CC1[C@H](C)OC(=O)CC(O)CC(O)CC(O)CCC(O)C(O)C[C@]2(O)CC(O)C(C(=O)O)C(CC(OC3O[C@H](C)[C@@H](O)[C@H](N)[C@@H]3O)/C=C/C=C/C=C/C=C/CC/C=C/C=C/[C@H](C)[C@H]1O)O2 (stereo not given in full)
LABEL CLASS: low

COMPOUND: O=S(=O)(c1ccc(Cl)cc1)c1cc(C(F)(F)F)cc(C(F)(F)F)c1
LABEL CLASS: mid

COMPOUND: O=c1[nH]c(=O)n(C2C[C@H](O)[C@@H](CO)O2)cc1C(F)(F)F (stereo not given in full)
LABEL CLASS: mid

COMPOUND: CC1OC(O[C@H]2/C=C/C=C/C=C/C=C/C=C/C=C/C=C/[C@H](C)[C@@H](O)[C@@H](C)[C@H](C)OC(=O)CC(O)CC(O)CCC(O)C(O)CC(O)C[C@]3(O)C[C@H](O)C(C(=O)O)C(C2)O3)C(O)[C@H](N)C1O (stereo not given in full)
LABEL CLASS: high

COMPOUND: CC(C)c1nc(N(C)S(C)(=O)=O)nc(-c2ccc(F)cc2)c1/C=C/[C@@H](O)C[C@@H](O)CC(=O)O
LABEL CLASS: high

COMPOUND: O=c1oc2ccccc2cc1O
LABEL CLASS: high

COMPOUND: CC(=O)NCCc1c[nH]c2ccc(O)cc12
LABEL CLASS: mid

COMPOUND: Cc1cc2c3c(c1)c(O)cc(=O)n3CCC2
LABEL CLASS: low

COMPOUND: Oc1c(Cl)cc(Cl)c(Cl)c1Cc1c(O)c(Cl)cc(Cl)c1Cl
LABEL CLASS: low

COMPOUND: Clc1ccc(COC(Cn2ccnc2)c2ccc(Cl)cc2Cl)c(Cl)c1 (stereo not given)
LABEL CLASS: low

COMPOUND: O=c1oc2ccccc2cc1[N+](=O)[O-]
LABEL CLASS: low

COMPOUND: Clc1ccc(C(c2ccccc2Cl)C(Cl)Cl)cc1 (stereo not given)
LABEL CLASS: mid

COMPOUND: O=C(O)COc1ccc(Cl)cc1Cl
LABEL CLASS: high

COMPOUND: NC1(C(=O)O)CC1
LABEL CLASS: high

COMPOUND: COc1cc(OC)c2c(=O)cc(-c3ccccc3)oc2c1
LABEL CLASS: low

COMPOUND: c1ccc(-c2csc(-c3cccnc3)n2)cc1
LABEL CLASS: low

COMPOUND: O=c1cccc2n1CC1CC2CN2CCCC[C@@H]12 (stereo not given in full)
LABEL CLASS: mid

COMPOUND: N/C(=N/OC(=O)Nc1ccccc1)c1ccc(C2SCCS2)cc1
LABEL CLASS: low

COMPOUND: Clc1ccc(COC(Cn2ccnc2)c2ccc(Cl)cc2Cl)cc1 (stereo not given)
LABEL CLASS: low

COMPOUND: COC1C=CC23c4cc5c(cc4CN(CC2O)[C@@H]3C1)OCO5 (stereo not given in full)
LABEL CLASS: high

COMPOUND: CCC(C)C(=O)c1c(O)c(C)c2oc3c(C)c(O)c(C(=O)C(C)CC)c(O)c3c2c1O (stereo not given)
LABEL CLASS: low

COMPOUND: CC(=O)O[C@]1(C)CC[C@@]23CC1C(C)(C)[C@@H]2CC[C@H]3C
LABEL CLASS: mid

COMPOUND: CN=C(N)NCCCC(N)C(=O)O (stereo not given)
LABEL CLASS: high

COMPOUND: FC(F)(F)Oc1ccccc1-c1nnc(-c2ccc(Cl)cc2)o1
LABEL CLASS: mid

COMPOUND: CCOC(=O)c1ccc(Oc2sccc2[N+](=O)[O-])cc1
LABEL CLASS: low

COMPOUND: S=C1NC2(CCCCC2)NN1c1ccccc1
LABEL CLASS: low

COMPOUND: Cc1nn(Cc2ccccc2Cl)c(=N)s1
LABEL CLASS: mid

COMPOUND: Brc1cccc(C=NCc2ccccc2)c1
LABEL CLASS: low
